Test: NCI Yeast Anticancer Drug Screen. Data for the sgs1 mgt1 strain (AID 161);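 further: 0% = growth of cultures given vehicle only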
Details: S. cerevisiae sgs1 mgt1 strain, at 50.0 µM (retest, dose inferred, filed as 5.0), stronger effect = higher value
The panel holds about 79,000 compounds, 15% with a hit somewhere; the sample as a whole holds those more often.
# Lookup of reported growth inhibition keyed by entry
// note: answer is a bare numeric in %

Some solved cases for reference:
O=C1OC(=O)C2C=CC=CC12 (configuration not stated)
4
Cc1cc2c(cc1O)CC[C@@H]1[C@@H]2CC[C@]2(C)[C@@H](O)CC[C@@H]12
-32
CCCCN(CCCC)CN1C(=O)/C(=C/c2ccc(NC(C)=O)cc2)NC1=S
64

Sample CC(C)(CC#N)c1cc(CC(C)(C)c2cc(CC(C)(C)c3cc(CC(C)(C)C4(C)OCCO4)no3)no2)no1 ; growth inhibition observed: 6

Sample CCOC(=O)C1CC2(CCC1N)c1ccccc1-c1ccccc12 (configuration not stated) ; growth inhibition observed: 27

Sample C/C=C\C(/C=C/C)(C(=O)OCCN(C)C)C(/C=C\C)(/C=C/C)C(=O)OCCN(C)C (configuration not stated) ; growth inhibition observed: 96

----------
Test: NCI Yeast Anticancer Drug Screen. Data for the mec2-1 strain (AID 157)
Conditions: S. cerevisiae mec2-1 strain, at 5.0 µM (retest, dose inferred, filed as 0.5), stronger effect = higher value
The panel holds about 79,000 compounds, 15% with a hit somewhere; the sample as a whole holds those more often.
# label = 1 (yes) if growth inhibition >= 20% else 0 (no)

Examples with answers:
Oc1ccc(Cc2cc(Cl)cc(Cl)c2O)cc1Cl
1 (yes)
O=C(CCCSCCCC(=O)NNc1ccccc1)NNc1ccccc1
0 (no)

(Q) Say whether Oc1c(Cl)c(Cl)c(O)c2c1CCCC2 shows growth inhibition of 20% or more.
(A) 1 (yes)

(Q) Say whether O=C1C(Cl)=C(N2CCN(c3ccccn3)CC2)C(=O)c2ncccc21 shows growth inhibition of 20% or more.
(A) 1 (yes)

(Q) Say whether CCC(c1ccc(O)cc1)C(CC)c1ccc(O)c(CN(C)C)c1 (stereo unspecified) shows growth inhibition of 20% or more.
(A) 0 (no)

(Q) Say whether O=[N+]([O-])C1C2C=CC(C2)[C@H]1c1ccc(Cl)cc1Cl (stereo partly specified) shows growth inhibition of 20% or more.
(A) 1 (yes)

(Q) Say whether Nc1ccc2c(c1)S(=O)(=O)c1cc(N)ccc1-2 shows growth inhibition of 20% or more.
(A) 0 (no)

(Q) Say whether COc1cc(C2C(Cl)C(=O)N2NC(=O)c2ccc(NC(C)=O)cc2)cc(OC)c1OC (stereo unspecified) shows growth inhibition of 20% or more.
(A) 0 (no)

(Q) Say whether C[n+]1c(-c2ccc(/C=N\NC(=O)c3cccc(C(=O)N/N=C/c4ccc(-c5cn6ccccc6[n+]5C)cc4)c3)cc2)cn2ccccc21 shows growth inhibition of 20% or more.
(A) 1 (yes)

----------
Assay: NCI Yeast Anticancer Drug Screen. Data for the mec2-1 strain (AID 157)
Conditions: S. cerevisiae mec2-1 strain, at 50.0 µM (retest, dose inferred, filed as 5.0)
This is part of a sample that, as a whole, favours compounds with a hit. Of some 79,000 tested, about 15% had one in any assay. Activity calls are given as the source filed them. No stated cut-off is given here; in the data, active means growth inhibition above about 70%; inactive means the rest.
Reply using exactly one outcome from 1 for active, -1 for inactive

Examples with answers:
O=C(CN1CCCCC1)c1ccc(/C=C/c2ccc(Cl)cc2)cc1
1
CCOC(=O)C12CCSC1C1(C#N)C(C#N)=CC2(N=P(c2ccccc2)(c2ccccc2)c2ccccc2)n2c(=O)n(-c3ccccc3)c(=O)n21 (stereo unspecified)
-1
O=C(O)C(O)C(O)C(O)C(O)CO.[Ag] (stereo unspecified)
1
C=C(C)COc1cc(NC(=S)OC(C)C)ccc1Cl
1
C/C=C(\C)CC/C=C/CO[Si](C)(C)C(C)(C)C
-1

Switching to the query record.
(Q) What is the recorded call for this molecule in the test? Cc1ccc2[nH]c3c(c2c1)[n+]([O-])c1ccccc1[n+]3[O-]
(A) -1

----------
# Lookup of reported growth inhibition keyed by entry
Assay: NCI Yeast Anticancer Drug Screen. Data for the bub3 strain (AID 167)
Conditions: S. cerevisiae bub3 mutant strain, at 50.0 µM (retest, dose inferred, filed as 5.0), stronger effect = higher value
About 79,000 compounds went through this panel and 15% of them were active in at least one assay; those are over-represented in the sample as a whole.
// note: answer is a bare numeric in %

O=C(O)/C=C/c1ccc2c(c1)CCCC2
70
CCOC(=O)c1ccc2c(c1)Cc1cc([N+](=O)[O-])ccc1-2
89
Cc1cc(=O)n(-c2ccc(F)cc2)n1C
-2

Now consider a different molecule.
Sample COc1c(O)cc2c(c1O)C(=O)C1=C(CCCC1)C2=O ; growth inhibition observed: 80

----------
Assay: NCI Yeast Anticancer Drug Screen. Data for the cln2 rad14 strain (AID 165);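 further: 0% = growth equal to vehicle treated cultures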
Conditions: S. cerevisiae cln2 rad14 strain, at 50.0 µM, stronger effect = higher value
The panel holds about 79,000 compounds, 15% with a hit somewhere; the sample as a whole holds those more often.
MEASURED METRIC: growth inhibition (%)
// note: answer is a bare numeric in %

COC(=O)c1ccc(OCCC(=O)CCl)cc1
69.1
O=C(OCCC1CCCCC1)c1cc([N+](=O)[O-])cc([N+](=O)[O-])c1
80.5

Sample O=[N+]([O-])c1ccc(CSSCc2ccc([N+](=O)[O-])cc2)cc1 ; growth inhibition observed: -18.2

Sample NC(=Nc1ccccc1)SCc1ccc([N+](=O)[O-])cc1 ; growth inhibition observed: 16.8

Sample CCc1ccccc1SC(C)=O ; growth inhibition observed: 59.9

Sample O=C(CN1CCCCC1)c1ccc(/C=C/c2ccc(Cl)cc2)cc1 ; growth inhibition observed: 97.5

Sample O=CC1(c2ccc(Cl)cc2)NC(=O)NC1=O (centres undefined) ; growth inhibition observed: 83

Sample CC12CCC3c4cc(O)ccc4CCC3C1CCC2O (centres undefined) ; growth inhibition observed: 24.8

Sample C#CCN1CCN(C(=S)N/N=C(\C)c2ccccn2)CC1 ; growth inhibition observed: 99.4

Sample O=C(O)C1OC(Oc2ccc3oc4ccccc4c(=O)c3c2)C(O)C(O)C1O (centres undefined) ; growth inhibition observed: 56.5

Sample CCC(=O)/C(=C\c1ccccc1)C(=O)C(C)CN(C)C (centres undefined) ; growth inhibition observed: 25.8

Sample Cc1c(-c2ccccc2)ccnc1/C=N/NC(=S)Nc1ccc(N(C)C)cc1 ; growth inhibition observed: 60.6

Sample CC12CCC(C(Br)(Br)C1=O)C2(C)C (centres undefined) ; growth inhibition observed: 30.5

Sample Cc1cc(NCCO)nc2c1ccc1ccccc12 ; growth inhibition observed: 16.6

Sample Nc1c(Cl)[nH]c(C(F)(F)F)nc1=S ; growth inhibition observed: 15.3

----------
# Lookup of reported growth inhibition keyed by entry
Assay: NCI Yeast Anticancer Drug Screen. Data for the cln2 rad14 strain (AID 165);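 further: 0% = growth equal to vehicle treated cultures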
Settings: S. cerevisiae cln2 rad14 strain, at 50.0 µM (retest, dose inferred, filed as 5.0), stronger effect = higher value
The panel holds about 79,000 compounds, 15% with a hit somewhere; the sample as a whole holds those more often.
// note: answer is a bare numeric in %

N#Cc1c(-c2ccc(Cl)c(Cl)c2)c(-c2ccc(Cl)c(Cl)c2)nn(CCO)c1=O
95
CC1/C(=N\O)CC(c2ccccc2)N(C)C1c1ccccc1 (centres undefined)
78
Nc1nc(N)c(N=O)c(Nc2cccc(Br)c2)n1
98

Sample [O-]c1c2cc(-[n+]3c(-c4ccccc4)cc(-c4ccccc4)cc3-c3ccccc3)cc1CO[C@@H](c1ccccc1)[C@H](c1ccccc1)OCCOCCO[C@@H](c1ccccc1)[C@H](c1ccccc1)OC2 ; growth inhibition observed: 97

----------
Test: NCI Yeast Anticancer Drug Screen. Data for the rad50 strain (AID 155);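 further: 0% = growth of vehicle-only cultures of the same strain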
Conditions: S. cerevisiae rad50 strain growth inhibition; at 50.0 µM (retest, dose inferred, filed as 5.0)
This is part of a sample that, as a whole, favours compounds with a hit. Of some 79,000 tested, about 15% had one in any assay. The source made the active and inactive calls. Cut-off read from the data, not from the text of the source: active = growth inhibition above about 70%; inactive = the rest.
Reply using exactly one outcome from TRUE = active, FALSE = inactive

Examples with answers:
CC(C)CCCC(C)C1CCC2C3CC=C4CC(OC(=O)Nc5ccc(S(=O)(=O)c6ccc(F)cc6)cc5)CCC4(C)C3CCC12C (configuration not stated)
FALSE
CCCCCCCCCCCC(=O)OCCOC(=O)CCCCCCCCCCC
FALSE

(Q) What is the recorded call for this compound in the test? CC(C)/C(Cl)=N/OC(=O)Nc1ccc(OC(F)(F)F)cc1
(A) TRUE

(Q) What is the recorded call for this compound in the test? CCc1cccc(C)c1NC(=O)C(=O)CC(=O)c1ccccc1Cl
(A) FALSE

(Q) What is the recorded call for this compound in the test? Nc1nc(Cc2ccccc2)nc(Cc2ccccc2)c1-c1ccccc1
(A) TRUE

----------
Test: NCI Yeast Anticancer Drug Screen. Data for the sgs1 mgt1 strain (AID 161);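 further: 0% = growth of cultures given vehicle only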
Details: S. cerevisiae sgs1 mgt1 strain, at 50.0 µM, stronger effect = higher value
The panel holds about 79,000 compounds, 15% with a hit somewhere; the sample as a whole holds those more often. Calls of active or inactive are those of the source. Rule as the data show it: active = growth inhibition above about 70%; inactive = the rest.
# Lookup of reported growth inhibition keyed by entry

Sample O=C(/C=C\c1ccc(Cl)c(Cl)c1)c1cccs1 ; growth inhibition observed: 92.2% (active)

Sample COc1cc(C=O)c(C=O)cc1OC ; growth inhibition observed: 52.5% (inactive)

Sample Clc1cccc2c(-c3ccccc3)c3cccc(Cl)c3cc12 ; growth inhibition observed: 42.2% (inactive)
